Assay system: hM2R (Homo sapiens, UniProt P08172)
Sequence (P08172 1-466): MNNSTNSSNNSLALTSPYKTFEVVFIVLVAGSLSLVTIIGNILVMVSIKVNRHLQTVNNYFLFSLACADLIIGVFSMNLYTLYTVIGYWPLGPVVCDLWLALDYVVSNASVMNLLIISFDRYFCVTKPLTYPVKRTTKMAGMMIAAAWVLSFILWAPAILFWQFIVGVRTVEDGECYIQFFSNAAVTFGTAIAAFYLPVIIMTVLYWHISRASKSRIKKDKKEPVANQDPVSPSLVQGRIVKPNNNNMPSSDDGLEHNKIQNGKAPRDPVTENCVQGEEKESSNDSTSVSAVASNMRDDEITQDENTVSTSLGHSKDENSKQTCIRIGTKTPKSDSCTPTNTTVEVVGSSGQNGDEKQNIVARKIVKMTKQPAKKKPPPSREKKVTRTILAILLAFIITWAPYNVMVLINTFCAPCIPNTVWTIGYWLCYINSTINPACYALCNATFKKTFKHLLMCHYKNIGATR
Property name: Ki
A complete answer gives the number followed by the unit.

## Input Give the reported value of Ki for this record: NCCOCCOCCC(=O)NCCOCCOCCNc1ccccc1C(=O)N1CCC(N2CCC(Cc3ccc(S(=O)(=O)c4cccc(Cl)c4)cc3)CC2)CC1.O=C(O)C(F)(F)F
## Output 1.1 nM

Cited source for all entries: paper PMC11995211
